Entries with reported MIC on Escherichia coli K-12 R-5

compound	system_name	MIC / µg/mL
CNC[C@H]1O[C@H](O[C@H]2[C@H](O[C@@H]3O[C@H](CO)[C@@H](O[C@H]4O[C@@H](CN)[C@@H](O)[C@H](O)[C@H]4N)[C@H]3O)[C@@H](O)[C@H](N)C[C@@H]2N)[C@H](N)C[C@@H]1O [MALVB, 6'-deoxy-6'-methylaminolividomycin B]	Escherichia coli K-12 R-5	1.56
NC[C@@H]1O[C@H](O[C@H]2[C@@H](O)[C@H](O[C@@H]3[C@@H](O)[C@H](N)C[C@H](N)[C@H]3O[C@H]3O[C@H](CN)[C@@H](O)C[C@H]3N)O[C@@H]2CO)[C@H](N)[C@@H](O)[C@@H]1O [ALVB, 6'-amino-6'-deoxylividomycin B]	Escherichia coli K-12 R-5	0.39
NC[C@@H]1O[C@H](O[C@H]2[C@@H](O)[C@H](O[C@@H]3[C@@H](O)[C@H](N)C[C@H](N)[C@H]3O[C@H]3O[C@H](CO)[C@@H](O)C[C@H]3N)O[C@@H]2CO)[C@H](N)[C@@H](O)[C@@H]1O [LVB, lividomycin B, reference compound]	Escherichia coli K-12 R-5	1.56
NC[C@@H]1O[C@H](O[C@H]2[C@@H](O)[C@H](O[C@@H]3[C@@H](O)[C@H](N)C[C@H](N)[C@H]3O[C@H]3O[C@H](CNCCO)[C@@H](O)C[C@H]3N)O[C@@H]2CO)[C@H](N)[C@@H](O)[C@@H]1O [HALVB]	Escherichia coli K-12 R-5	1.56
